Origin of the recorded values: PubChem BioAssay AID1159580

- ASSAY TEXT: chemical genetic growth profiling, strain panel (AID 1159580);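 note: tested at 20 µM; growth read once vehicle control cultures reached saturation at 30 °C; 1 = growth at the plate median or of vehicle wells; lower values mean less growth of the strain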
- TEST PARAMETERS: S. cerevisiae deletion strains, growth OD, locus YDL035C, strain GPR1, hits give low values
Hit rate of the full screen: of about 5,500 compounds, about 2,000 (36%) were called active. Roughly 18% stayed inconclusive and do not appear here. The list shows a part of the results.
normalized growth values by entry
VALUE TYPE: normalized growth

COMPOUND: Cc1cc(OC(=O)c2c(C)cc(O)cc2O)cc(O)c1C(=O)O
VALUE TYPE: normalized growth
MEAS VALUE: 1

COMPOUND: NC(=O)c1ncn([C@@H]2O[C@H](CO)[C@@H](O)[C@H]2O)n1
VALUE TYPE: normalized growth
MEAS VALUE: 1.02

COMPOUND: COC(=O)C[C@H]1C(C)(C)C2(Cl)O[C@@]34CC2C(=O)[C@]1(C)C3CC[C@]1(C)C4=CC(=O)O[C@H]1c1ccoc1 (stereo partly specified)
VALUE TYPE: normalized growth
MEAS VALUE: 1.02

COMPOUND: O=C1C=C2C(=CCOC2O)O1 (stereo unspecified)
VALUE TYPE: normalized growth
MEAS VALUE: 0.776

COMPOUND: C[C@]12CCC3c4ccc(OS(=O)(=O)O)cc4CCC3C1CC[C@H]2O (stereo partly specified)
VALUE TYPE: normalized growth
MEAS VALUE: 0.991

COMPOUND: CCCCCc1c2c(cc(O)c1C(=O)O)OC(=O)c1c(cc(OC)cc1C(=O)CCCC)O2
VALUE TYPE: normalized growth
MEAS VALUE: 0.945

COMPOUND: CCCCCCCCCCCC1=C(O)C(=O)C=C(O)C1=O
VALUE TYPE: normalized growth
MEAS VALUE: 0.525

COMPOUND: CC(C)[N+](C)(CCC(C(N)=O)(c1ccccc1)c1ccccc1)C(C)C
VALUE TYPE: normalized growth
MEAS VALUE: 1.01

COMPOUND: C[C@]12CCC3c4ccc(O)cc4CCC3C1C[C@@H](O)[C@@H]2O (stereo partly specified)
VALUE TYPE: normalized growth
MEAS VALUE: 0.969

COMPOUND: COc1ccc2c(c1)CCC1C2CC[C@@]2(C)C1CC[C@@H]2O (stereo partly specified)
VALUE TYPE: normalized growth
MEAS VALUE: 0.728

COMPOUND: CCC(=O)c1c(O)cc(O)cc1O
VALUE TYPE: normalized growth
MEAS VALUE: 1.01
